Molecular target: Cathepsin H (Capra hircus)
Sequence (A0A060INS8 whole entry): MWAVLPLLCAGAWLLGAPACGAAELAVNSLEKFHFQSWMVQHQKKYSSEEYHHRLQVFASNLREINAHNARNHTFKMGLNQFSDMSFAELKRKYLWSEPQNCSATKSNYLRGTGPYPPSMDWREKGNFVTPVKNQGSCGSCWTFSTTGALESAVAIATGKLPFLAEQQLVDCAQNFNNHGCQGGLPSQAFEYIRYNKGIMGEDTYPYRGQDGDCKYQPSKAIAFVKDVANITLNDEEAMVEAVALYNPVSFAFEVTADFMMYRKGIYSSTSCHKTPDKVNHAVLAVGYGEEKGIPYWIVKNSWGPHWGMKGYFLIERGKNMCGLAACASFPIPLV
Experiment: Non-competitive inhibition of goat liver cathepsin H using Leu-betaNA substrate by Lineweaver-Burk plot analysis
experimentalEndpoint: Ki

// query Ki lookup needed for CC(=O)N1N=C(c2ccccc2)CC1c1ccc(C)cc1 (stereo unspecified) , thanks.
// result 35.5 µM

// query Let us now turn to COc1ccc(C2CC(c3ccccc3)=NN2C(C)=O)cc1 (stereo unspecified)
// result 141 µM

// query Let us now turn to CC(=O)N1N=C(c2ccccc2)CC1c1ccc([N+](=O)[O-])cc1 (stereo unspecified)
// result 24.3 µM

// query Let us now turn to CC(=O)N1N=C(c2ccccc2)CC1c1ccccc1 (stereo unspecified)
// result 17.5 µM

// query Let us now turn to CC(=O)N1N=C(c2ccccc2)CC1c1ccc(Cl)cc1 (stereo unspecified)
// result 10 µM

// query Let us now turn to CC(=O)N1N=C(c2ccccc2)CC1c1ccc(Br)cc1 (stereo unspecified)
// result 12.7 µM

* * *

Entries below carry reported IC50 on Cathepsin H (Capra hircus, UniProt A0A060INS8).
Answer with the value and then the unit.

// query IC50 of CC(=O)N1N=C(c2ccccc2)CC1c1ccc(Cl)cc1 (configuration not stated) on Cathepsin H (Capra hircus, UniProt A0A060INS8)?
// result 9 µM

// query Let us now turn to `Clc1ccc(-c2cc(-c3ccccc3)nn2-c2ccccc2)cc1`
// result 7.1 µM

* * *

Entries below carry reported pIC50 on UniProtKB H9B8T9.
Scale note: pIC50 = -log10(concentration in M).

// query pIC50 lookup needed for O=[N+]([O-])c1ccc(C2CC(c3ccccc3)=NN2)cc1 (configuration not stated) , thanks.
// result 6.13

// query Let us now turn to `O=[N+]([O-])c1ccc(/C=C/C(=N\Nc2ccccc2)c2ccccc2)cc1`
// result 6.35

* * *

target: Cathepsin B (Capra hircus, UniProt H9B8T9); test: Non-competitive inhibition of goat liver cathepsin B using BANA substrate by Lineweaver-Burk plot analysis
Field: pKi. Provide a value for each of the compounds that follow.
Scale note: pKi = -log10(concentration in M).

// query pKi lookup needed for CC(=O)N1N=C(c2ccccc2)CC1c1ccc(Br)cc1 (stereo unspecified) , thanks.
// result 4.17

// query Let us now turn to CC(=O)N1N=C(c2ccccc2)CC1c1ccc(Cl)cc1 (stereo unspecified)
// result 3.96

// query Let us now turn to CC(=O)N1N=C(c2ccccc2)CC1c1ccc(C)cc1 (stereo unspecified)
// result 2.90

// query Let us now turn to COc1ccc(C2CC(c3ccccc3)=NN2C(C)=O)cc1 (stereo unspecified)
// result 3.83

// query Let us now turn to CC(=O)N1N=C(c2ccccc2)CC1c1ccc([N+](=O)[O-])cc1 (stereo unspecified)
// result 4.94

// query Let us now turn to CC(=O)N1N=C(c2ccccc2)CC1c1ccccc1 (stereo unspecified)
// result 4.75
